Provenance of the data: ChEMBL document CHEMBL1201862

System: HL-60
Assay text: NCI tumour cell line growth inhibition, 48 h
Calls of active or inactive are those of the source. No stated cut-off is given here; in the data, active = GI50 up to about 1.1 µM and inactive = higher. Where a SMILES comes first, the peptide text is derived from it. Bridges are numbered along the chain shown (N, C = ends). [ ]: non-standard residue; d: D form. The star is where a group is joined. ξ: configuration not given here. ξNMePhe(4-NMe2) = CNC(Cc1ccc(N(C)C)cc1)C(=O)O; Picolinoyl(3-OH) = O=C(c1ncccc1O)*; ξPip(4-oxo) = O=C1CCNC(C(=O)O)C1; Phg = N[CH](C(=O)O)c1ccccc1; Abu = CC[CH](N)C(=O)O
Property label: GI50

Molecule	Subject of test	Recorded value
c1ccc(C(Oc2noc3ccccc23)c2ccccc2)cc1	HL-60	23.4 µM (inactive)
Cn1c(=O)c(/N=N/c2c(=O)n(C)c(=O)n3c2[nH]c2ccccc23)c2[nH]c3ccccc3n2c1=O	HL-60	> 100 µM (inactive)
Nc1nc2c3c(ncn3CC(O)CO2)n1 (stereo unspecified)	HL-60	> 100 µM (inactive)
CC1=C/C(O)CC(=O)Cc2nc(co2)C(=O)N2CCC=C2C(=O)OC(C(C)C)C(C)/C=C/C(=O)NC\C=C\1.CCC1NC(=O)C(NC(=O)c2ncccc2O)C(C)OC(=O)C(c2ccccc2)NC(=O)C2CC(=O)CCN2C(=O)C(Cc2ccc(N(C)C)cc2)N(C)C(=O)C2CCCN2C1=O (stereo unspecified) ({Picolinoyl(3-OH)}-T[Abu]P[ξNMePhe(4-NMe2)][ξPip(4-oxo)][Phg]; ester 1-C; configuration not given here)	HL-60	3.71 µM (inactive)
OCC1OC(n2cnc3cccnc32)CC1O (stereo unspecified)	HL-60	> 100 µM (inactive)
CCCCc1ccc(Nc2nc3c(ncn3C3CC(O)C(CN=[N+]=[N-])O3)c(=O)[nH]2)cc1 (stereo unspecified)	HL-60	> 100 µM (inactive)
